System: Mus musculus
Assay: Toxicity in PS mouse allografted with mouse P388 cells assessed as change in body weight at 6.2 ug/kg relative to control
Format: organism-based
Conditions: in vivo, 0.0062 mg/kg
ENDPOINT_NAME: Activity
Phrase the answer as number then unit, nothing more needed.

Recorded results for 4 compounds are shown here.
COMPOUND	Activity
CCC(=O)O[C@H]1CC(=O)N(C)c2cc(cc(OC)c2Cl)C/C(C)=C/C=C/[C@@H](OC)[C@@]2(O)C[C@H](OC(=O)N2)[C@@H](C)[C@@H]2O[C@@]12C	-1 g
COc1cc2cc(c1Cl)N(C)C(=O)CC(O)C1(C)OC1C(C)C1CC(O)(NC(=O)O1)C(OC)/C=C/C=C(\C)C2 (stereo not given)	0.5 g
COc1cc2cc(c1Cl)N(C)C(=O)C[C@H](OC(=O)[C@H](C)N(C)C(C)=O)[C@]1(C)O[C@H]1[C@H](C)[C@@H]1C[C@@](O)(NC(=O)O1)[C@H](OC)/C=C/C=C(\C)C2	1.3 g
COc1cc2cc(c1Cl)NC(=O)/C=C/C(C)=C/[C@H](C)[C@@H]1C[C@@](O)(NC(=O)O1)[C@H](OC)/C=C/C=C(\C)C2	0.7 g

Shifting focus to the compound that follows.
Input: Can you share its Activity? I mean this compound: COc1cc2cc(c1Cl)N(C)C(=O)C[C@H](OC(=O)[C@H](C)N(C)C(=O)C(C)C)[C@]1(C)O[C@H]1[C@H](C)[C@@H]1C[C@@](OC)(NC(=O)O1)[C@H](OC)/C=C/C=C(\C)C2
Output: -0.6 g

====

Tested on: Mus musculus
Assay: Toxicity in PS mouse allografted with mouse P388 cells assessed as change in body weight at 100 ug/kg relative to control
Type: organism-based
Conditions: in vivo, 0.1 mg/kg
ENDPOINT_NAME: Activity (g)
Entry rule: numbers only, all in g.

MOLECULE	Activity [g]
COc1cc2cc(c1Cl)N(C)C(=O)C[C@H](OC(C)=O)[C@]1(C)O[C@H]1[C@H](C)[C@@H]1C[C@@](O)(NC(=O)O1)[C@H](OC)/C=C/C=C(\C)C2	-0.6
COc1cc2cc(c1Cl)NC(=O)/C=C/[C@]1(C)O[C@H]1[C@H](C)[C@@H]1C[C@@](O)(NC(=O)O1)[C@H](OC)/C=C/C=C(\C)C2	1.2
COc1cc2cc(c1Cl)N(C)C(=O)C[C@H](OC(=O)[C@H](C)N(C)C(C)=O)[C@]1(C)O[C@H]1[C@H](C)[C@@H]1C[C@@](O)(NC(=O)O1)[C@H](OC)/C=C/C=C(\C)C2 [MAYTANSINE]	-0.4
COc1cc2cc(c1Cl)N(C)C(=O)/C=C/[C@]1(C)O[C@H]1[C@H](C)[C@@H]1C[C@@](O)(NC(=O)O1)[C@H](OC)/C=C/C=C(\C)C2	1

Input: Can you share its Activity? I mean this molecule: CCO[C@]12C[C@H](OC(=O)N1)[C@@H](C)[C@@H]1O[C@@]1(C)[C@@H](OC(=O)[C@H](C)N(C)C(=O)C(C)C)CC(=O)N(C)c1cc(cc(OC)c1Cl)C/C(C)=C/C=C/[C@H]2OC
Output: 3.4

====

Test system: Mus musculus
Assay: Toxicity in PS mouse allografted with mouse P388 cells assessed as change in body weight at 12.5 ug/kg relative to control
Assay type: organism-based
Settings: in vivo, 0.0125 mg/kg
ENDPOINT_NAME: Activity (g)
Entry rule: numbers only, all in g.

SUBSTANCE_SMILES	READOUT_NUMBER
CCC(=O)O[C@H]1CC(=O)N(C)c2cc(cc(OC)c2Cl)C/C(C)=C/C=C/[C@@H](OC)[C@@]2(O)C[C@H](OC(=O)N2)[C@@H](C)[C@@H]2O[C@@]12C	-0.3
COc1cc2cc(c1Cl)N(C)C(=O)/C=C/[C@]1(C)O[C@H]1[C@H](C)[C@@H]1C[C@@](O)(NC(=O)O1)[C@H](OC)/C=C/C=C(\C)C2	1

Input: Can you share its Activity? I mean this compound: COc1cc2cc(c1Cl)NC(=O)/C=C/C(C)=C/[C@H](C)[C@@H]1C[C@@](O)(NC(=O)O1)[C@H](OC)/C=C/C=C(\C)C2
Output: 0.7

Input: Can you share its Activity? I mean this compound: COc1cc2cc(c1Cl)N(C)C(=O)C[C@H](OC(=O)CBr)[C@]1(C)O[C@H]1[C@H](C)[C@@H]1C[C@@](O)(NC(=O)O1)[C@H](OC)/C=C/C=C(\C)C2
Output: -0.3

Input: Can you share its Activity? I mean this compound: COc1cc2cc(c1Cl)N(C)C(=O)C[C@H](OC(=O)[C@H](C)N(C)C(=O)C(C)C)[C@]1(C)O[C@H]1[C@H](C)[C@@H]1C[C@@](O)(NC(=O)O1)[C@H](OC)/C=C/C=C(\C)C2
Output: 0.1

From: ChEMBL document CHEMBL3244382
